assay system: Procathepsin L (Homo sapiens, UniProt P07711)
Sequence (P07711 whole entry): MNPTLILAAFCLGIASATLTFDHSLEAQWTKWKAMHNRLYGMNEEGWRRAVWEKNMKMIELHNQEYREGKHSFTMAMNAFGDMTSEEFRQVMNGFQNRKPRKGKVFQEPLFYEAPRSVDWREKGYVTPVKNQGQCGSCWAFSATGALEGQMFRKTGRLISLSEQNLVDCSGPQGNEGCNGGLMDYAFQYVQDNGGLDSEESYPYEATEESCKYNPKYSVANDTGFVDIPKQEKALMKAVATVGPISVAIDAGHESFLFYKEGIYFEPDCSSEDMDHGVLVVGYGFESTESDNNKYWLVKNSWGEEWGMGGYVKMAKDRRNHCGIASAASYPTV
assay text: Inhibition of recombinant human Cathepsin L using Z-Phe-Arg-aminomethylcoumarin as substrate
reported endpoint: IC50

compound="CC[C@H](C)[C@@H](C(=O)O[C@@H](CC(C)C)C(=O)N[C@@H](CC(C)C)C(=O)N[C@@H](C)/C=C/C(=O)N1C(=O)C=C(OC)[C@@H]1C)N(C)C [GALLINAMIDE A]" result="47 nM"

---

assay system: Cathepsin L2 (Homo sapiens, UniProt O60911)
Sequence (O60911 whole entry): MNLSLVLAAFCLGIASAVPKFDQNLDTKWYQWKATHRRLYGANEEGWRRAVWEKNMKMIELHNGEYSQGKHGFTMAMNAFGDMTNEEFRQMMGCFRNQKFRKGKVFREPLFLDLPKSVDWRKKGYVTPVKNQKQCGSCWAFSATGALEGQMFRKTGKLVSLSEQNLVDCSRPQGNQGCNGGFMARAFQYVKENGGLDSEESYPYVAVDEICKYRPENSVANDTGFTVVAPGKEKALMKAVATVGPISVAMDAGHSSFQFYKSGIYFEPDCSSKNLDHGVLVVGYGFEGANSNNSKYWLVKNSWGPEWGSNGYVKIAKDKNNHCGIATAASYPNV
assay text: Inhibition of human Cathepsin V using Z-Phe-Arg-aminomethylcoumarin as substrate preincubated for 30 mins followed by substrate addition
pIC50: −log10 of the molar value.
reported endpoint: pIC50

compound="CC[C@H](C)[C@@H](C(=O)O[C@@H](CC(C)C)C(=O)N[C@@H](CC(C)C)C(=O)N[C@@H](C)/C=C/C(=O)N1C(=O)C=C(OC)[C@@H]1C)N(C)C [GALLINAMIDE A]" recorded_number=6.85

---

assay system: Cathepsin L2 (Homo sapiens, UniProt O60911)
assay text: Inhibition of human Cathepsin V using Z-Phe-Arg-aminomethylcoumarin as substrate
reported endpoint: IC50 (nM)

compound="CC[C@H](C)[C@@H](C(=O)O[C@@H](CC(C)C)C(=O)N[C@@H](CC(C)C)C(=O)N[C@@H](C)/C=C/C(=O)N1C(=O)C=C(OC)[C@@H]1C)N(C)C [GALLINAMIDE A]" assay_system="Cathepsin L2 (Homo sapiens, UniProt O60911)" recorded_number=460

---

assay system: Cathepsin B (Homo sapiens, UniProt P07858)
assay text: Inhibition of human Cathepsin B using Z-Phe-Arg-aminomethylcoumarin as substrate
pIC50: −log10 of the molar value.
reported endpoint: pIC50

molecule="CC[C@H](C)[C@@H](C(=O)O[C@@H](CC(C)C)C(=O)N[C@@H](CC(C)C)C(=O)N[C@@H](C)/C=C/C(=O)N1C(=O)C=C(OC)[C@@H]1C)N(C)C [GALLINAMIDE A]" assay_system="Cathepsin B (Homo sapiens, UniProt P07858)" recorded_number=5.38

---

assay system: Cathepsin B (Homo sapiens, UniProt P07858)
assay text: Inhibition of human Cathepsin B using Z-Phe-Arg-aminomethylcoumarin as substrate preincubated for 30 mins followed by substrate addition
reported endpoint: IC50

compound="CC[C@H](C)[C@@H](C(=O)O[C@@H](CC(C)C)C(=O)N[C@@H](CC(C)C)C(=O)N[C@@H](C)/C=C/C(=O)N1C(=O)C=C(OC)[C@@H]1C)N(C)C [GALLINAMIDE A]" result="1700 nM"
